# Test system: SK-MEL-5 melanoma
# assay_protocol: NCI-60 one-dose screen, 48 h (100 = growth as untreated, 0 = no growth, -100 = all killed)
# assay_context: 10 µM unless noted
About 83,000 compounds went through this panel and 20% of them were active in at least one assay; those are over-represented in the sample as a whole.
Measured growth values are reported for all entries that follow.
recorded_endpoint: growth (%)

{"columns": ["compound", "unit_abbrev", "reported"],
 "data": [
  ["CCN(CC)c1ccc(/C=N/NC(=O)c2ccc(S(N)(=O)=O)cc2)c(O)c1", "%", -7.45],
  ["Cc1ccc(N2CCN(C3=C(Cl)C(=O)c4ncccc4C3=O)CC2)cc1", "%", 90.4],
  ["O=C(/C=C/c1ccccc1Cl)Nc1ncc(Cc2cc(Cl)ccc2Cl)s1", "%", 25.7],
  ["CNc1sc(S(=O)(=O)NC)nc1S(=O)(=O)c1ccc(C)cc1", "%", 98.4],
  ["CN1CCN(CC#CCn2c3c(c4ccccc42)C[C@]2(C)[C@H]4CC=C5[C@@H]6CC(C)(C)CC[C@]6(C(=O)N6CCOCC6)CC[C@@]5(C)[C@]4(C)CC[C@H]2C3(C)C)CC1", "%", 95.7],
  ["O=C(/C=C/c1cccc(Br)c1)c1cccc(OCCCCOc2cccc(C(=O)/C=C/c3cccc(Br)c3)c2)c1", "%", 99.4],
  ["O=C(/C=C/c1csc(Br)n1)NO", "%", -33.1],
  ["CC/C(=C(/c1ccc(Cl)cc1)c1ccc(OCCN)cc1)c1ccccc1", "%", 99.1],
  ["Cc1cccc(N2CCN(C3=C(Cl)C(=O)c4ncccc4C3=O)CC2)c1", "%", 95.2],
  ["CCCCCCN1C=C/C(=C\\C(=O)n2ccc3ccccc32)c2ccccc21", "%", 30.8],
  ["CC1=C(C)C(=O)C(Nc2cccc(C)c2)=C(Br)C1=O", "%", 90.5],
  ["C[C@@H]1OCC2(CCN(c3cnc(C(=O)Nc4cc(F)cc5cccnc45)cn3)CC2)[C@@H]1N", "%", 94.4],
  ["CC[C@]12CC(C(=O)OC)=C3Nc4ccccc4[C@@]34CCN(C14)[C@@H]1c3cc4c(cc3O[C@@H]1[C@H]2O)NC1=C(C(=O)OC)C[C@@]2(CC)C3N(CC[C@@]143)C[C@H]1O[C@H]12 (stereo partly drawn)", "%", -75.7],
  ["O=C(COc1ccc(/C=C2\\C(=O)Nc3ccc(Cl)cc32)cc1)Nc1ccc(Cl)cc1", "%", 78],
  ["CCOC(=O)c1c(NC(=O)c2ccc(C(F)(F)F)cc2)sc2c3c(ccc12)OCN(C)C3", "%", 94.7],
  ["O=C1[C@@H]2Cc3c([nH]c4ccccc34)[C@@H](c3ccc(Cl)cc3)N2C(=O)CN1C1CCN(Cc2c(F)cccc2F)CC1", "%", 48.8],
  ["CCc1cccc2c3c(sc12)C(c1ccc(F)cc1)C(C#N)=C(/N=C/c1ccc(Cl)cc1)O3 (stereo not drawn)", "%", 32.4],
  ["O=[N+]([O-])c1ccc(NC(=S)NNC(=S)Nc2ccc(Br)cc2)cc1", "%", 92.7]
]}

* * *

# Test system: SN12C renal
# assay_protocol: NCI-60 one-dose screen, 48 h (100 = growth as untreated, 0 = no growth, -100 = all killed)
# assay_context: 10 µM unless noted
About 83,000 compounds went through this panel and 20% of them were active in at least one assay; those are over-represented in the sample as a whole.
Classify by measured growth: condition met if it is equal to or exceeds 60%, condition not met if it is smaller.

{"columns": ["compound", "assay_target", "label_value"],
 "data": [
  ["NS(=O)(=O)c1cccc(Nc2nc(SCC(=O)c3ccc(Cl)cc3)nc3c2CCC3)c1", "SN12C renal", "condition met"],
  ["CN(C)c1ccc(-c2cc(-c3c[nH]c4ccccc34)nc(N)c2C#N)cc1", "SN12C renal", "condition not met"],
  ["Cc1ccc(-c2nc(SCC(=O)c3ccccc3)nc(Nc3ccc(S(N)(=O)=O)cc3)c2C#N)cc1", "SN12C renal", "condition met"],
  ["COc1ccc(-c2cc(-c3ccc(N(C)C)cc3)n3c(n2)nc2ccccc23)cc1", "SN12C renal", "condition met"],
  ["CC(=O)c1cc(C(=O)N2c3ccccc3Sc3ccccc32)n2c1ccc1ccccc12", "SN12C renal", "condition met"],
  ["CCS(=O)(=O)Nc1ccc(C(=O)CC2(O)C(=O)Nc3ccccc32)cc1 (stereo not given)", "SN12C renal", "condition met"],
  ["Nc1ccc(Nc2ncnc3sc4c(c23)CCN(Cc2ccccc2)C4)cc1", "SN12C renal", "condition met"],
  ["Cc1ccc(OCc2occc2C(=O)N2CCOCC2)cc1", "SN12C renal", "condition met"],
  ["Cc1ncn(-c2ccc(/C=N/Nc3ccnc4cc(Cl)ccc34)cc2)c1C", "SN12C renal", "condition not met"],
  ["CC1=C(C)C(=O)C(Nc2ccc(C)c(C)c2)=C(Br)C1=O", "SN12C renal", "condition met"]
]}
